System: Streptococcus pneumoniae
assay: Antibacterial activity against penicillin intermediate-resistant Streptococcus pneumoniae isolate I3 by agar dilution method
Assay type: functional
endpoint_label: MIC

smiles_str | study_system | endpoint_label | result
CC[C@H]1OC(=O)[C@H](C)C(=O)[C@H](C)[C@@H](O[C@@H]2O[C@H](C)C[C@H](N(C)C)[C@H]2O)[C@](C)(OC)C[C@@H](C)/C(=N\OC/C=C/c2cncnc2)[C@H](C)[C@@H](O)[C@]1(C)O | Streptococcus pneumoniae | MIC | 1 mg/L

API: the following record is the query input.
According to the records, this molecule CC[C@H]1OC(=O)[C@H](C)C(=O)[C@H](C)[C@@H](O[C@@H]2O[C@H](C)C[C@H](N(C)C)[C@H]2O)[C@](C)(OC)C[C@@H](C)/C(=N\OC/C=C/c2cccc(OC)c2)[C@H](C)[C@@H](O)[C@]1(C)O displays MIC of 64 mg/L

Cited source for all entries: ChEMBL document CHEMBL1156205
